target: IGF-IR (Homo sapiens); assay: Western blot of IGF-IR autophosphorylation
Sequence (P08069 31-736): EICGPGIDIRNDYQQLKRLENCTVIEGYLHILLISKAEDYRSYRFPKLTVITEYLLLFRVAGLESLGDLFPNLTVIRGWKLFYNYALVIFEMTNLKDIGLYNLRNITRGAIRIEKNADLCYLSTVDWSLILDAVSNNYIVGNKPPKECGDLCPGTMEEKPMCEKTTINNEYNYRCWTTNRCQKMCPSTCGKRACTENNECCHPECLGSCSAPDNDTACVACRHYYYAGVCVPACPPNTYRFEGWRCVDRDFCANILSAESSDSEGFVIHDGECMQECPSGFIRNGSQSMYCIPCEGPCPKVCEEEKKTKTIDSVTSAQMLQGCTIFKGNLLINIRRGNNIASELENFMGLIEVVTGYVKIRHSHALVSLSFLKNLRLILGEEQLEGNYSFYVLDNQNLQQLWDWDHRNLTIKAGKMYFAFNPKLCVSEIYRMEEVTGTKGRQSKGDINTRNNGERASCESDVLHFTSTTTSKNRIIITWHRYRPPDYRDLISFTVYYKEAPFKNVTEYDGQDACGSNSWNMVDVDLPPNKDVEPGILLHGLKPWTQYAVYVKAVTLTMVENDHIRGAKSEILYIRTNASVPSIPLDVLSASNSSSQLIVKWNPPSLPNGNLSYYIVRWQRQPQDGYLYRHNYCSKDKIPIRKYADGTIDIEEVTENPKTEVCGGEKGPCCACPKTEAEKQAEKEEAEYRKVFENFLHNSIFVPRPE
Sequence (P08069 741-1367): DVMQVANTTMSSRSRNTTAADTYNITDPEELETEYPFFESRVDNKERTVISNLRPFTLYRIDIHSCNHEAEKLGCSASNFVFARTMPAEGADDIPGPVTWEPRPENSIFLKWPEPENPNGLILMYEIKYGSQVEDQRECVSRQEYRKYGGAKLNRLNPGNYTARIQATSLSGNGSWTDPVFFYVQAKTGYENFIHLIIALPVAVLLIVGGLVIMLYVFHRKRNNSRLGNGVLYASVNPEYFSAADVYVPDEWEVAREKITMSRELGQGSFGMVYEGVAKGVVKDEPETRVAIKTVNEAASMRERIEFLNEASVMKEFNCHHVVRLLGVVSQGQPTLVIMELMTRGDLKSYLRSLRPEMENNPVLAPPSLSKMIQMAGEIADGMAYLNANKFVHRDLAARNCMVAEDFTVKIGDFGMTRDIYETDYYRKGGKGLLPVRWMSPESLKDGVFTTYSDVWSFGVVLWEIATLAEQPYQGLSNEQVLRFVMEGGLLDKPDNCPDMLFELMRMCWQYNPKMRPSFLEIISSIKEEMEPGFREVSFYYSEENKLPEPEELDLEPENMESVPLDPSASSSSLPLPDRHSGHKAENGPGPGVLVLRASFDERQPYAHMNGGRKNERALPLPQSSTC
resultType: IC50

Task: Can you share its IC50? I mean this molecule: Cc1ccsc1C(=O)Nc1cc(CN2CCN(C(=O)CO)CC2)ccc1/C=C/c1n[nH]c2ccccc12 [KW-2450]
Output: < 2 nM
